- method.notes: Cytotoxicity against mouse BMDM cells assessed as reduction in cell viability at 100 uM after 24 hrs by MTT assay
- Type: cell-based
measured.endpoint: Activity

>>> meas_value("NC(=O)C(Cc1ccccc1)NC(=O)NC(=O)c1ccc(-c2cccc(O)c2)s1 (centres undefined)")
"Toxic"
>>> meas_value("c1ccc(C(OC2CCN(CCCc3nnn[nH]3)CC2)c2ccccc2)cc1")
"Toxic"
>>> meas_value("c1ccc(-c2ncc(-c3cc[nH]n3)s2)cc1")
"Toxic"

----------
- test.target: Hematopoietic prostaglandin D synthase (Homo sapiens)
- Sequence (O60760 whole entry): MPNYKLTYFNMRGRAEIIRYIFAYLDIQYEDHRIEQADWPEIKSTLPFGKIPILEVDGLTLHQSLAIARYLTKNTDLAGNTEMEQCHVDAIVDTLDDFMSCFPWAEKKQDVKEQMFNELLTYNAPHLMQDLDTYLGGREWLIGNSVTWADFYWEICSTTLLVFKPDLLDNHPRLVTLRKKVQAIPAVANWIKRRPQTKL
pIC50: −log10 of the molar value.
measured.endpoint: pIC50

>>> meas_value("c1ccc(-c2ncc(-c3cc[nH]n3)s2)cc1")
6.15
>>> meas_value("c1ccc(C(OC2CCN(CCCc3nnn[nH]3)CC2)c2ccccc2)cc1")
5.42
>>> meas_value("NC(=O)C(CCC(=O)O)NC(=O)c1cccc(-c2cccc(O)c2)c1 (stereo unspecified)")
4.64
>>> meas_value("O=C(NC(c1ccccc1)c1ccccc1)c1ccc(-c2cccc(O)c2)s1")
6.15
>>> meas_value("O=C(NC(c1ccccc1)c1ccccc1)c1csc(-c2cccc(O)c2)n1")
4.97
>>> meas_value("Cc1cc(-c2csc(Nc3ccc(C(=O)O)c(O)c3)n2)ccc1F")
5.85
